Could you please report measured % Inhibition (αIIbβ3/Fg) @ 50 μM for the items listed next?
Molecular target: αIIbβ3 (Homo sapiens, UniProt P05106+P08514)
Construct: purchased Sigma
Sequence (P08514 32-887 limits assumed): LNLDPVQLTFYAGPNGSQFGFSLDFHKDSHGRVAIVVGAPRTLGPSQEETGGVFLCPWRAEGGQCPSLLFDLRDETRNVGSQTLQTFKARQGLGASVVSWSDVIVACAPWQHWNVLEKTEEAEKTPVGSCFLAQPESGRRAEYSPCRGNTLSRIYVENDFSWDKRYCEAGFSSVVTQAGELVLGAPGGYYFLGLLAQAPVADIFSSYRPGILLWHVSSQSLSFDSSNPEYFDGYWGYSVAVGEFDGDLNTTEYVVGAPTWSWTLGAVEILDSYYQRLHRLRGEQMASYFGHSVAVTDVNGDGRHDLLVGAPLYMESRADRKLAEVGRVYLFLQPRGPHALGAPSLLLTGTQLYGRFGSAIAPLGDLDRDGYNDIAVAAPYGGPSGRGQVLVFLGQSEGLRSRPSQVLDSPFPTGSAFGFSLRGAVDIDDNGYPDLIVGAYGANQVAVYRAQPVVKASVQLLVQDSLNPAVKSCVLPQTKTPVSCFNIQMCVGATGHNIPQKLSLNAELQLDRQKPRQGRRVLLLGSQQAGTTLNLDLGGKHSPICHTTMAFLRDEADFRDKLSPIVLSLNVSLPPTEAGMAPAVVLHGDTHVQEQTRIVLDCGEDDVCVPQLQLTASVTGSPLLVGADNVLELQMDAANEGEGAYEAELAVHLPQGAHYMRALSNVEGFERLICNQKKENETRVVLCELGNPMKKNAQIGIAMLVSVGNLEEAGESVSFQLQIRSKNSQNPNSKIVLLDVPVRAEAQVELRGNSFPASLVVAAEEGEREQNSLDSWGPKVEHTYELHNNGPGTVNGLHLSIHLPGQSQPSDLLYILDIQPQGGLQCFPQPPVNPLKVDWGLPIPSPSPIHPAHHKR
Sequence (P08514 891-1039 partner limits assumed): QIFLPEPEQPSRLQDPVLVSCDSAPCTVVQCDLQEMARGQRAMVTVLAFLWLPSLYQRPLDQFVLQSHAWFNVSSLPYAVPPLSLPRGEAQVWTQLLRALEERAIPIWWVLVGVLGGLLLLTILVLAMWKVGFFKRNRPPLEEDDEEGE
Sequence (P05106 27-788): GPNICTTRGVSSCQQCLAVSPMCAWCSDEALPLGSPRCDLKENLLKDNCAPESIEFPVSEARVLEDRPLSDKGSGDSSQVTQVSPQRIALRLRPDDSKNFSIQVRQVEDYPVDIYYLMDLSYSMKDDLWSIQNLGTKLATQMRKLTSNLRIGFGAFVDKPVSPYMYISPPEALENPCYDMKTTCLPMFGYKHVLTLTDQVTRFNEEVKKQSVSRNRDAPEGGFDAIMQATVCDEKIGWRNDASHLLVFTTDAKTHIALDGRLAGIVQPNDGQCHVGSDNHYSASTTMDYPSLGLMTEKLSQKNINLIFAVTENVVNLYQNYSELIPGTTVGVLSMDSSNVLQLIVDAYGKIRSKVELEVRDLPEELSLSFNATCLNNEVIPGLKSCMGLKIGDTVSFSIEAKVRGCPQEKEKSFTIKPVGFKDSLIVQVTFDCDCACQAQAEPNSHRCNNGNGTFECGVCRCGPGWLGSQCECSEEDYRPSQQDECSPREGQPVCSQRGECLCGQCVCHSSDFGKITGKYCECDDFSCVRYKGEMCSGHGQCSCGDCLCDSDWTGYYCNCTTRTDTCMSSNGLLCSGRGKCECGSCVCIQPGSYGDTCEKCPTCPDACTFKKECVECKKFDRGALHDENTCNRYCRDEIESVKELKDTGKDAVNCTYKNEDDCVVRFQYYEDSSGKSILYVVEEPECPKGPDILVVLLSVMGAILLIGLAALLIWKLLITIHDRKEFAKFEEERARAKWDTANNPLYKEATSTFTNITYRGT
Test: αIIbβ3/fibrinogen purified protein binding ELISA
Details: 50 μM, mean ± SD

Ask | # query: % Inhibition (αIIbβ3/Fg) @ 50 μM of entry COC(=O)[C@H](CNC(=O)C1CC(CCCNc2ncccn2)C1)NS(=O)(=O)c1ccccc1 (stereo partly shown)
Reply | 10.9 ± 15.4%

Ask | Consider the compound shown here: `O=C(O)[C@H](CNC(=O)[C@H]1C[C@H](CCCNc2ncccn2)C1)NS(=O)(=O)c1ccccc1` What is its recorded % Inhibition (αIIbβ3/Fg) @ 50 μM?
Reply | 93.6 ± 2.2%

Ask | Fill blank: measured % Inhibition (αIIbβ3/Fg) @ 50 μM of the compound Cc1cc(C)c(S(=O)(=O)N[C@@H](CNC(=O)C2CC(CCc3ccc4cccnc4n3)C2)C(=O)O)c(C)c1 (stereo partly shown) is ____.
Reply | 84.5 ± 8.6%

Ask | Quick check: % Inhibition (αIIbβ3/Fg) @ 50 μM of `O=C(O)[C@H](CNC(=O)[C@H]1C[C@@H](CCCNc2ncccn2)C1)NS(=O)(=O)c1ccccc1` ?
Reply | 100 ± 6%

Ask | Value lookup for % Inhibition (αIIbβ3/Fg) @ 50 μM; key = `COC(=O)[C@H](CNC(=O)[C@H]1C[C@H](CCNc2ncccn2)C1)NS(=O)(=O)c1c(C)cc(C)cc1C`
Reply | 33.5 ± 2.8%

Ask | What value of % Inhibition (αIIbβ3/Fg) @ 50 μM has been reported for the following compound? `COC(=O)[C@H](CNC(=O)[C@H]1C[C@H](CCc2ccc3c(n2)NCCC3)C1)NS(=O)(=O)c1c(C)cc(C)cc1C`
Reply | 0 ± 9.8%

Ask | Would you kindly share the measured % Inhibition (αIIbβ3/Fg) @ 50 μM for `COC(=O)[C@H](CNC(=O)[C@H]1C[C@H](CCc2ccc3cccnc3n2)C1)NS(=O)(=O)c1c(C)cc(C)cc1C` ?
Reply | 29.4 ± 17.6%

Recorded values, source paper PMC10452181.
